# assayed-system: Procathepsin L (Homo sapiens) (UniProt P07711)
# Sequence (P07711 114-288 limits assumed): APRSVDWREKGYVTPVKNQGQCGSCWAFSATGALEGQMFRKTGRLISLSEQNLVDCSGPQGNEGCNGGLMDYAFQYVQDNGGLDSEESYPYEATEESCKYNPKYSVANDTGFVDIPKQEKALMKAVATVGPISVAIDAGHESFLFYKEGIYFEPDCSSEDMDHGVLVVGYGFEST
# Sequence (P07711 292-333 limits assumed): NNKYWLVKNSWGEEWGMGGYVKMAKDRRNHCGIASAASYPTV
# assay-procedure: blockers of CTSL protease activity – biochemical (AID 460)
# condition-context: purified cathepsin L, fluorogenic substrate, fluorescence;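 tested at 10 µM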
About 100 (0.17%) of roughly 58,000 compounds were called active. Rule as the data show it: active = inhibition above about 45%; inactive = the rest. This is one part of a sample in which actives are shown more often than they occur.
Classes used: True = active, False = inactive

{"molecule": "CC(C)NS(=O)(=O)c1ccc(OCC(=O)Nc2ccc3c(c2)OCCO3)cc1", "assigned-category": "False"}
{"molecule": "CCCCOc1ccc(-c2ncc(C(=O)OCC)c(N)n2)cc1", "assigned-category": "False"}
{"molecule": "Cc1c(C)c2cc3c4c(oc3c(C)c2oc1=O)CCCC4", "assigned-category": "False"}
{"molecule": "COc1ccc(NC2CC(=O)N(C)C2=O)cc1 (configuration not stated)", "assigned-category": "False"}
{"molecule": "Cc1ccc(-n2nc3c(c2NC(=O)c2ccc4c(c2)OCO4)CSC3)c(C)c1", "assigned-category": "False"}
{"molecule": "O=C(CN1C(=O)CCC1=O)Nc1ccc(S(=O)(=O)N2CCOCC2)cc1", "assigned-category": "False"}
{"molecule": "CCOc1cccc(C(=O)Nc2cccnc2)c1", "assigned-category": "False"}
{"molecule": "CC(C)CCNC(=O)CN(C(=O)Cn1nnc(-c2ccc(F)cc2)n1)C1CCCC1", "assigned-category": "False"}
{"molecule": "CN1CCN(S(=O)(=O)c2ccc3[nH]cc(C(=O)O)c(=O)c3c2)CC1", "assigned-category": "False"}
{"molecule": "O=C(c1ccc2c(c1)N(Cc1ccc(F)cc1)C(=O)CS2)N1CCOCC1", "assigned-category": "False"}
{"molecule": "COc1ccc(CCN=C2SCC(=O)N2C)cc1OC", "assigned-category": "False"}
{"molecule": "COc1ccc(C2CC(c3ccccc3)Nc3ncnn32)cc1 (configuration not stated)", "assigned-category": "False"}
{"molecule": "CCCc1cc(=O)[nH]c(SCC(=O)OCc2ccccc2)n1", "assigned-category": "False"}
{"molecule": "Clc1ccccc1CSc1nnc(-c2ccco2)c(-c2ccco2)n1", "assigned-category": "True"}
{"molecule": "C=CCNC(=O)c1ccc(C)c(Br)c1", "assigned-category": "False"}
{"molecule": "COc1ccc(CCNc2ncnc3nc[nH]c23)cc1OC", "assigned-category": "False"}
{"molecule": "Cc1cc(NC(=O)CCC2COc3ccccc3O2)no1 (configuration not stated)", "assigned-category": "False"}
{"molecule": "Cc1cccc(OCc2nnc(SCc3nc4cc(C(F)(F)F)ccc4c(=O)[nH]3)o2)c1", "assigned-category": "False"}
{"molecule": "Cc1cc(NC(=O)c2cnn3cccnc23)n(-c2ccccc2)n1", "assigned-category": "False"}
{"molecule": "COC(=O)c1c(NC(=O)c2cccs2)sc2c1CCCC2", "assigned-category": "False"}
{"molecule": "COC(=O)c1cc(OC)c(OC)cc1NC(=O)C1CCCO1 (configuration not stated)", "assigned-category": "False"}
{"molecule": "C[N+](C)(C)CCNC(=O)c1c(O)c2c([nH]c1=O)CCCC2", "assigned-category": "False"}
{"molecule": "COC(=O)C(C)C1Sc2ccccc2NC1=O (configuration not stated)", "assigned-category": "False"}
{"molecule": "CN1c2ccccc2-c2nc3ccccc3n2C1c1ccco1 (configuration not stated)", "assigned-category": "False"}
{"molecule": "C=CCOc1nc2c(c(=O)n(C)c(=O)n2C)n1Cc1ccc(Cl)cc1Cl", "assigned-category": "False"}
{"molecule": "N#Cc1c(NC(=O)CCCN2C(=O)c3ccccc3C2=O)oc(-c2ccccc2)c1-c1ccccc1", "assigned-category": "False"}
{"molecule": "CC12COC3(C(=O)Nc4ccc(Cl)cn4)CC1CCC32C (configuration not stated)", "assigned-category": "False"}
{"molecule": "CC(=O)N=c1ncn(CC(COC(C)=O)OC(C)=O)c2nc[nH]c12 (configuration not stated)", "assigned-category": "False"}
{"molecule": "COc1ccc(-c2nnn(Cc3nc(N)nc(N4CCCCC4)n3)n2)cc1", "assigned-category": "False"}
{"molecule": "c1ccc2c(c1)OCC(CNc1ncnc3nc[nH]c13)O2 (configuration not stated)", "assigned-category": "True"}
{"molecule": "O=c1cc(O)nc(SCc2ccccc2Cl)[nH]1", "assigned-category": "False"}
{"molecule": "c1ccc(-n2ncc3c2ncn2c(C4CCCCC4)nnc32)cc1", "assigned-category": "False"}
{"molecule": "CCCCCCC(=O)N(O)C1CC(=O)N(c2ccccc2)C1=O (configuration not stated)", "assigned-category": "False"}
{"molecule": "CCCOc1ccc(CN(CCO)CCO)cc1C(=O)OC", "assigned-category": "False"}
{"molecule": "O=C(CCN1C(=O)COc2ccccc21)NCCCN1CCN(c2ccc(F)cc2)CC1", "assigned-category": "False"}
{"molecule": "CC(C)n1c(C(O)c2ccccc2)nc2ccccc21 (configuration not stated)", "assigned-category": "False"}
{"molecule": "COc1ccc(NC(=O)CN2CCN(S(=O)(=O)c3ccc(F)cc3)CC2)cc1Cl", "assigned-category": "False"}
{"molecule": "CCN(CC)S(=O)(=O)c1cccc(C(=O)Nc2ccccc2)c1", "assigned-category": "False"}
{"molecule": "CCOC(=O)c1cc2c(n(-c3ccc(C)cc3)c1=O)CCCC2=O", "assigned-category": "False"}
{"molecule": "CCOc1cc(/C=N/O)cc(Br)c1OC", "assigned-category": "False"}
{"molecule": "c1ccc2cc(OCCN3CCCC3)ccc2c1", "assigned-category": "False"}
{"molecule": "COCCn1c(=O)[nH]c2cc(C(=O)NCc3cccnc3)ccc2c1=O", "assigned-category": "False"}
{"molecule": "CCCC1CC(C)(C(=O)Cn2[nH]c(=O)ccc2=O)OC1=O (configuration not stated)", "assigned-category": "False"}
{"molecule": "Fc1ccc2[nH]c3c(N4CCN(Cc5ccc6c(c5)OCO6)CC4)ncnc3c2c1", "assigned-category": "False"}
{"molecule": "CC(C)c1ccc(OCC(O)Cn2cnc3ccccc32)cc1 (configuration not stated)", "assigned-category": "False"}
{"molecule": "CCOC(=O)c1ccc(NC(=O)CSc2nnc(COc3ccccc3OC)n2C)cc1", "assigned-category": "False"}
{"molecule": "CCN(CC(=O)Nc1ccc2c(c1)OCCO2)Cc1cc(=O)oc2cc(C)c(C)cc12", "assigned-category": "False"}
